Target: hNav 1.7 (Homo sapiens (Human))
Sequence (Q15858 whole entry): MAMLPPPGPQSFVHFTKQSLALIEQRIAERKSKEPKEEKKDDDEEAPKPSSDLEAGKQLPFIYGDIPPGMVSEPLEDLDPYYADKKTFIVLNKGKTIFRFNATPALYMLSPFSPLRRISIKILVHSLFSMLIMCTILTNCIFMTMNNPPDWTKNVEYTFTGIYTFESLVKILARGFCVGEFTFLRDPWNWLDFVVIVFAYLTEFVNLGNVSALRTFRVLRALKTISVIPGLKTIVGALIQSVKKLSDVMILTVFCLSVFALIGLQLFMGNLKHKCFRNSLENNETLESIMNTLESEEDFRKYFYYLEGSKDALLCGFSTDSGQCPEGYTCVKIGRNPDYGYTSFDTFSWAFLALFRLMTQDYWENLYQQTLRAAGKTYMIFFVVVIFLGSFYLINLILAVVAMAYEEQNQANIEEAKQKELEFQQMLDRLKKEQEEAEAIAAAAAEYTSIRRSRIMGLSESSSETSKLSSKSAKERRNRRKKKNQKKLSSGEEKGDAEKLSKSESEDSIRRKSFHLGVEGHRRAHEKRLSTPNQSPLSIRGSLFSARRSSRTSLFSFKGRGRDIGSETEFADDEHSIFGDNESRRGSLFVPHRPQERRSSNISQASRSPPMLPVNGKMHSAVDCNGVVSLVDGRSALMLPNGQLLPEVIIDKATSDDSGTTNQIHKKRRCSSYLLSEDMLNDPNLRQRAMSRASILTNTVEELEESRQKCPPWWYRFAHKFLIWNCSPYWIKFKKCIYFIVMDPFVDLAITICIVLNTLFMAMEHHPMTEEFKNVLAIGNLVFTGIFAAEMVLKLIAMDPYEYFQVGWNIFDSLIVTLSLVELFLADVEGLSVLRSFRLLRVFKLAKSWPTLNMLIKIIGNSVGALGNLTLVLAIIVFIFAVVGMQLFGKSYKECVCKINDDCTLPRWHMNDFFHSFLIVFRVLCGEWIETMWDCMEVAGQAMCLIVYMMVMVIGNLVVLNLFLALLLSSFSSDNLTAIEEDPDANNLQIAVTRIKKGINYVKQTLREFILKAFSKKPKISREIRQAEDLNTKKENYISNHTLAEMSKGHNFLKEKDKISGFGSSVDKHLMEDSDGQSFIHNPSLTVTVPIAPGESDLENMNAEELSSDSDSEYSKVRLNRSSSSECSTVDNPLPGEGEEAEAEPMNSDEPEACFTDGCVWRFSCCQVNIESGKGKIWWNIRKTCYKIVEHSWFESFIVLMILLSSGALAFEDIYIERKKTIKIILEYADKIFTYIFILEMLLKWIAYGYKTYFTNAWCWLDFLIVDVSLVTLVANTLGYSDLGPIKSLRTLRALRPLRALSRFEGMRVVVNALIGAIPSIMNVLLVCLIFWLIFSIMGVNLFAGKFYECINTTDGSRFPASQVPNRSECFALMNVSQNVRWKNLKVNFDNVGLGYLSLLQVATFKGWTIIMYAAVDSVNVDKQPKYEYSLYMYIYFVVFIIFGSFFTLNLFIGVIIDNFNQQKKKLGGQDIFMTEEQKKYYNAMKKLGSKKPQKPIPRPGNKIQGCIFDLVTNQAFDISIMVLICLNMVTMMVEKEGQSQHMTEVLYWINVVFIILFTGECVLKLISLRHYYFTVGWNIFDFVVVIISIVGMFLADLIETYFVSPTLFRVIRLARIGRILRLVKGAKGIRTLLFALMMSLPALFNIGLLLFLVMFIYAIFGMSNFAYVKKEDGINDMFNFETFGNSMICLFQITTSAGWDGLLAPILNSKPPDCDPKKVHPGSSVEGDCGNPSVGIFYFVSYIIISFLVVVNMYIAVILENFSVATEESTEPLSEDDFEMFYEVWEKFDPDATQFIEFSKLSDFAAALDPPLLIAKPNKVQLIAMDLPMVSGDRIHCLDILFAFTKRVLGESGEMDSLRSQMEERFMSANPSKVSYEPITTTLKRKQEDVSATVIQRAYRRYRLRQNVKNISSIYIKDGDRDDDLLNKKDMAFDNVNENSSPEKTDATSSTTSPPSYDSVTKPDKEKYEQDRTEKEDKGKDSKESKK
Sequence (Q07699 19-218 partner): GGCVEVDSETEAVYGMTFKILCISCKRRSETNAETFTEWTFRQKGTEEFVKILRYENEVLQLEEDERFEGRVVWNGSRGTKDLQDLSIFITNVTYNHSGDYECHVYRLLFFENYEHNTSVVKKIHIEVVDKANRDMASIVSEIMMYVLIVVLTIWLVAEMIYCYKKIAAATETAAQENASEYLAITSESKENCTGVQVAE
Sequence (O60939 30-215 partner): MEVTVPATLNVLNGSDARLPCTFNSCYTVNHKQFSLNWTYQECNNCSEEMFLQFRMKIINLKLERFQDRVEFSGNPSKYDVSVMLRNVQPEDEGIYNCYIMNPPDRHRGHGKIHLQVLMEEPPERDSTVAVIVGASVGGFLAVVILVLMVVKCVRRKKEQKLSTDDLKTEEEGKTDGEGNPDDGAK
Assay: Electrophysiological evaluation, automated patch clamp IonWorks Quattro (Population Patch Clamp mode)
Details: HEK293A cells stably expressing hNav 1.7/β1/β2; response to second depolarization pulse, pre-pulse potential set to V1/2; read-out: hNav1.7 IC50
pIC50: −log10 of the molar value.
Measurement label: pIC50

Consider the following illustrative entries.
[[record]]
molecule = "CCn1nccc1[C@H]1CCC[C@@H]1Oc1cc(F)c(S(=O)(=O)Nc2ccncn2)cc1F (relative stereo)"
assay_result = 6.68

[[record]]
molecule = "Cn1nccc1[C@H]1CC[C@@H](O)C[C@@H]1Oc1cc(F)c(S(=O)(=O)Nc2ccncn2)cc1Cl (relative stereo)"
assay_result = 6.25


A: Cn1nccc1[C@H]1CC(C)(C)CC[C@@H]1Oc1cc(F)c(S(=O)(=O)Nc2ccncn2)cc1F (relative stereo)
B: Cn1nccc1[C@H]1CCCCC[C@@H]1Oc1ccc(S(=O)(=O)Nc2ccncn2)c(F)c1F (relative stereo)
C: Cc1cc(S(=O)(=O)Nc2ccncn2)c(F)cc1O[C@H]1CCC[C@@H]1c1c[nH]nc1N (relative stereo)
D: Cc1cc(S(=O)(=O)Nc2ccncn2)c(F)cc1O[C@@H]1CCC[C@H]1c1ccn[nH]1
Asked: Form: Sort by [pIC50] Order [ ascending ] Present the labels in the sequence the task asks for.
Given back: D, B, C, A

----------
Biological target: hNav 1.7 (Homo sapiens (Human))
Assay: Electrophysiological evaluation, automated patch clamp IonWorks Quattro (Population Patch Clamp mode)
Format: cell-based
Settings: HEK293A cells stably expressing hNav 1.7/β1/β2; response to second depolarization pulse, pre-pulse potential set to V1/2; read-out: hNav1.7 IC50
Measurement label: IC50 (nM)

[[record]]
compound = "Nc1ncccc1[C@H]1CCCC[C@@H]1Oc1cc(F)c(S(=O)(=O)Nc2ccncn2)cc1F (relative stereo)"
measurement_label = "IC50"
assay_result = 87


1: Cc1c(O[C@H]2CCCC[C@@H]2c2c[nH]nc2N)ccc(S(=O)(=O)Nc2ccncn2)c1F (relative stereo)
2: Cn1nccc1[C@H]1CCCC[C@@H]1Oc1ccc(S(=O)(=O)Nc2ccncn2)c(F)c1F (relative stereo)
3: Cn1nccc1[C@H]1C[C@H](OCc2ccccc2)C[C@@H]1Oc1cc(F)c(S(=O)(=O)Nc2ccncn2)cc1F (relative stereo)
4: Cn1nccc1[C@H]1CCC(F)(F)C[C@@H]1Oc1ccc(S(=O)(=O)Nc2ccncn2)c(F)c1F (relative stereo)
Asked: Form: Sort by [IC50] Order [ ascending ] Present the labels in the sequence the task asks for.
Given back: 3, 1, 4, 2

----------
Molecular target: hNav 1.7 (Homo sapiens (Human))
Test: Electrophysiological evaluation, automated patch clamp IonWorks Quattro (Population Patch Clamp mode)
Conditions: HEK293A cells stably expressing hNav 1.7/β1/β2; response to second depolarization pulse, pre-pulse potential set to V1/2; read-out: hNav1.7 IC50
Measurement label: IC50 (nM)

A: Nc1nnccc1[C@H]1CCCC[C@@H]1Oc1cc(F)c(S(=O)(=O)Nc2ccncn2)cc1F (relative stereo) [Example 82]
B: Cn1nccc1[C@H]1CCC[C@@H]1Oc1ccc(S(=O)(=O)Nc2ccncn2)cc1C#N (relative stereo) [Example 26]
C: Cn1nccc1[C@H]1C[C@@H](O)CC[C@@H]1Oc1cc(F)c(S(=O)(=O)Nc2ccncn2)cc1Cl (relative stereo) [Example 162]
D: Cn1nccc1[C@@H]1[C@@H](Oc2cc(F)c(S(=O)(=O)Nc3ccncn3)cc2F)CCC[C@H]1OCc1ccccc1 (relative stereo) [Example 100]
Asked: Parameters: sort_by = IC50; order = desc; input = items above. Present the labels in the sequence the task asks for.
Given back: C, D, B, A
(C: 820 nM, D: 380 nM, B: 200 nM, A: 56 nM)

I: Nc1n[nH]cc1[C@H]1CCCC[C@@H]1Oc1cc(F)c(S(=O)(=O)Nc2ccncn2)cc1Cl (relative stereo) [Example 71]
II: Cn1nccc1[C@@H]1[C@@H](Oc2cc(F)c(S(=O)(=O)Nc3ccncn3)cc2F)CCCC1(F)F (relative stereo) [Example 117]
Asked: Which of the two gives a bigger number for IC50: I or II ? Give the chosen item's label as your response.
Given back: II
(II: 750 nM, I: 150 nM)
